system: HT29; settings: 72 h, relative to DMSO; 10 µM
Quick reference: Relative cell viability (%) of the listed items.
Hi! Could you send only the number? It should be in %, unit omitted.

Below, each entry is followed by its recorded Relative cell viability (%) result.
1. COCCCOc1cc(C[C@@H](C[C@H](N)[C@@H](O)C[C@H](C(=O)NCC(C)(C)C(N)=O)C(C)C)C(C)C)ccc1OC [Aliskiren Hemifumarate] = 106.1
2. COCCOC(=O)C1=C(C)NC(C)=C(C(=O)OC(C)C)C1c1cccc([N+](=O)[O-])c1 (stereo not drawn) = 53.81
3. CN1C[C@@H]2c3ccccc3Oc3ccc(Cl)cc3[C@H]2C1 (racemic) = 50.93

Challenge: Check HT29 data and give Relative cell viability (%) for OC[C@H]1OC(O)[C@H](O)[C@@H](O)[C@@H]1O (stereo partly drawn) .
Response given: 126.7

Challenge: Check HT29 data and give Relative cell viability (%) for CN(C)/N=N/c1[nH]cnc1C(N)=O .
Response given: 91.43

Challenge: Check HT29 data and give Relative cell viability (%) for C[C@]12CCC(=O)C=C1[C@@H]1C[C@@H]1[C@H]1[C@@H]3[C@@H]4C[C@@H]4[C@@]4(CCC(=O)O4)[C@@]3(C)CC[C@@H]12 .
Response given: 86.76

Challenge: Check HT29 data and give Relative cell viability (%) for CC[C@H](NC(=O)[C@H](C)NC)C(=O)N1C[C@@H](O)C[C@H]1Cc1c(-c2[nH]c3cc(F)ccc3c2C[C@@H]2C[C@H](O)CN2C(=O)[C@H](CC)NC(=O)[C@H](C)NC)[nH]c2cc(F)ccc12 .
Response given: 132.9

Challenge: Check HT29 data and give Relative cell viability (%) for CN1CCN(c2ccc(C(=O)Nc3n[nH]c4ccc(Cc5cc(F)cc(F)c5)cc34)c(NC3CCOCC3)c2)CC1 [Entrectinib (RXDX-101)] .
Response given: 2.137

Challenge: Check HT29 data and give Relative cell viability (%) for Cn1cnc2c(F)c(Nc3ccc(Br)cc3F)c(C(=O)NOCCO)cc21 .
Response given: 36.75

###

tested on: HT29; details: 72 h, relative to DMSO; 10 µM
experimentalReadout: Relative cell viability (%) (%)
Hi! Could you send only the number? It should be in %, unit omitted.

Below, each entry is followed by its recorded Relative cell viability (%) result.
1. Cc1ccc(=O)n(-c2ccccc2)c1 = 56.31
2. CCN(c1cc(-c2ccc(CN3CCOCC3)cc2)cc(C(=O)NCc2c(C)cc(C)[nH]c2=O)c1C)C1CCOCC1 = 121.4
3. C[C@@H]1COC(Nc2ccc3ncnc(Nc4ccc(OCc5nccs5)c(Cl)c4)c3c2)=N1 = 111.6

With those in mind, consider the next compound.
Challenge: For the compound CN(N=O)C(=O)N[C@@H](C=O)[C@@H](O)[C@H](O)[C@H](O)CO [Streptozotocin (STZ)] , report Relative cell viability (%).
Response given: 74.3

###

system: HT29; conditions: 72 h, relative to DMSO; 10 µM
Structures can show the parent of a compound that is named as a salt.
Quick reference: Relative cell viability (%) of the listed items.
Hi! Could you send only the number? It should be in %, unit omitted.

Below, each entry is followed by its recorded Relative cell viability (%) result.
1) CC[C@]1(O)C[C@H]2CN(CCc3c([nH]c4ccccc34)[C@@](C(=O)OC)(c3cc4c(cc3OC)N(C=O)[C@H]3[C@@](O)(C(=O)OC)[C@H](OC(C)=O)[C@]5(CC)C=CCN6CC[C@]43[C@@H]65)C2)C1 [Vincristine] = 22.9
2) FC(F)(F)c1ccc(/C=C/c2nc(COc3ccc(CCCCn4ccnn4)cc3)co2)cc1 [Mubritinib (TAK 165)] = 116.7
3) Nc1ncnc2c1ncn2[C@@H]1O[C@H](CO)[C@@H](O)[C@@H]1O [Vidarabine] = 74.15
4) c1ccc(CN(CC2=NCCN2)c2ccccc2)cc1 [Antazoline HCl] = 63.94
5) O=C(c1ccc(OCCN2CCCCC2)cc1)c1c(-c2ccc(O)cc2)sc2cc(O)ccc12 [Raloxifene HCl] = 36.92

Challenge: Check HT29 data and give Relative cell viability (%) for CO[C@H]1/C=C/O[C@@]2(C)Oc3c(C)c(O)c4c(O)c(c(/C=N/N5CCN(C)CC5)c(O)c4c3C2=O)NC(=O)/C(C)=C\C=C\[C@H](C)[C@H](O)[C@@H](C)[C@@H](O)[C@@H](C)[C@H](OC(C)=O)[C@@H]1C [Rifampin] .
Response given: 76.69

Challenge: Check HT29 data and give Relative cell viability (%) for CN(C)C(=O)COC(=O)Cc1ccc(OC(=O)c2ccc(NC(=N)N)cc2)cc1 [Camostat Mesilate] .
Response given: 140.8

Challenge: Check HT29 data and give Relative cell viability (%) for CNC(=O)c1ccc(Nc2ncc(C(F)(F)F)c(NCc3nccnc3N(C)S(C)(=O)=O)n2)cc1 [Defactinib (VS-6063, PF-04554878)] .
Response given: 67.52

Challenge: Check HT29 data and give Relative cell viability (%) for CO[C@H]1C(=O)[C@]2(C)[C@@H](OC)C[C@H]3OC[C@@]3(OC(C)=O)[C@H]2[C@H](OC(=O)c2ccccc2)[C@]2(O)C[C@H](OC(=O)[C@H](O)[C@@H](NC(=O)OC(C)(C)C)c3ccccc3)C(C)=C1C2(C)C [Cabazitaxel] .
Response given: 12.62

Challenge: Check HT29 data and give Relative cell viability (%) for CC(=O)c1cc2c(o1)C(=O)c1ccccc1C2=O [Napabucasin] .
Response given: 0

###

Quick reference: Relative cell viability (%) of the listed items.
test system: HT29; settings: 72 h, relative to DMSO; 10 µM
Structures can show the parent of a compound that is named as a salt.
Hi! Could you send only the number? It should be in %, unit omitted.

1) Cc1cccc(C)c1OCC(C)N (centres unmarked) [Mexiletine HCl] = 84.85
2) COc1ccc(C(=O)CC(=O)c2ccc(C(C)(C)C)cc2)cc1 = 117.3
3) COc1cc(OC)c(C(=O)CCCN2CCCC2)c(OC)c1 [Buflomedil HCl] = 34.47

With those in mind, consider the next compound.
Challenge: Check HT29 data and give Relative cell viability (%) for CC(C)C[C@H](NC(=O)CNC(=O)c1cc(Cl)ccc1Cl)B(O)O .
Response given: 125

###

Quick reference: Relative cell viability (%) of the listed items.
tested on: HT29; details: 72 h, relative to DMSO; 10 µM
Structures can show the parent of a compound that is named as a salt.
Hi! Could you send only the number? It should be in %, unit omitted.

1) NCCS [Cysteamine HCl] = 89.39
2) O=C(/C=C/C=C/c1ccc2c(c1)OCO2)N1CCCCC1 = 104.9
3) COc1ccc(-c2ccc3cc(C(=O)O)ccc3c2)cc1[C@]12C[C@H]3C[C@H](C[C@H](C3)C1)C2 = 16.67
4) CCCCc1oc2ccc(NS(C)(=O)=O)cc2c1C(=O)c1ccc(OCCCN(CCCC)CCCC)cc1 [Dronedarone HCl] = 86.05

Challenge: For the molecule O=C(C[S+]([O-])Cc1ccco1)NC/C=C\COc1cc(CN2CCCCC2)ccn1 (centres unmarked) , report Relative cell viability (%).
Response given: 119.6

Challenge: For the molecule C[C@@H](O[C@H]1OCCN(Cc2nc(O)n(P(=O)(O)O)n2)[C@H]1c1ccc(F)cc1)c1cc(C(F)(F)F)cc(C(F)(F)F)c1 [Fosaprepitant dimeglumine salt] , report Relative cell viability (%).
Response given: 111.6

Challenge: For the molecule CC(C)OC(=O)C(C)(C)Oc1ccc(C(=O)c2ccc(Cl)cc2)cc1 [Fenofibrate] , report Relative cell viability (%).
Response given: 74.15

Challenge: For the molecule Nc1nc2c(ncn2COCCO)c(=O)[nH]1 , report Relative cell viability (%).
Response given: 89.41

Challenge: For the molecule CCN(Cc1ccncc1)C(=O)C(CO)c1ccccc1 (centres unmarked) [Tropicamide] , report Relative cell viability (%).
Response given: 144.5

Challenge: For the molecule Clc1ccc(C(Cn2ccnc2)OCc2ccc(Sc3ccccc3)cc2)c(Cl)c1 (centres unmarked) [Fenticonazole Nitrate] , report Relative cell viability (%).
Response given: 58.4

Challenge: For the molecule Fc1ccc(C(c2ccc(F)cc2)N2CCN(C/C=C/c3ccccc3)CC2)cc1 [Flunarizine 2HCl] , report Relative cell viability (%).
Response given: 73.29

Challenge: For the molecule NC12CC3CC(CC(C3)C1)C2 [Amantadine HCl] , report Relative cell viability (%).
Response given: 105.5

Challenge: For the molecule CCCCCCCCCCCCCCCC[N+](C)(C)C [Cetrimonium Bromide (CTAB)] , report Relative cell viability (%).
Response given: 18.48

Challenge: For the molecule O=c1ccn([C@@H]2O[C@H](CO)[C@@H](O)[C@H]2O)c(=O)[nH]1 , report Relative cell viability (%).
Response given: 222.2

Challenge: For the molecule CCc1oc2ccccc2c1C(=O)c1cc(Br)c(O)c(Br)c1 , report Relative cell viability (%).
Response given: 82.12

Challenge: For the molecule COC(=O)C1=C(C)NC(C)=C(C(=O)OCCN(C)Cc2ccccc2)C1c1cccc([N+](=O)[O-])c1 (centres unmarked) [Nicardipine HCl] , report Relative cell viability (%).
Response given: 83.03

Challenge: For the molecule CC(=O)O[C@]1(C(C)=O)CC[C@H]2[C@@H]3C=C(C)C4=CC(=O)CC[C@]4(C)[C@H]3CC[C@@]21C [Megestrol Acetate] , report Relative cell viability (%).
Response given: 68.07
